Biological target: Dopamine receptor (Bos taurus) (UniProt Q95136+P20288)
Test: Compound was tested for enhancement of the binding of [3H]ADTN to dopamine receptors at concentration of 100 nM
Assay type: protein assay
Square brackets hold non-standard residues; d marks the D form. Peptide text beside a SMILES is read from it. pGlu = O=C1CC[C@@H](C(=O)O)N1; Pip = O=C(O)[C@@H]1CCCCN1; Thz = O=C(O)[C@@H]1CSCN1; Aze = O=C(O)[C@@H]1CCN1
observable: Enhancement (%)
Answers are plain numbers, in %.

Answered examples (7):
CC(C)C[C@H](NC(=O)[C@@H]1C=CCN1)C(=O)NCC(N)=O: 55
CC(C)C[C@H](NC(=O)[C@@H]1CCCN1)C(=O)NCC(N)=O (stereo in doubt; 2): 33
CC(C)C[C@H](NC(=O)[C@@H]1CCC(=O)N1)C(=O)NCC(N)=O ([pGlu]-Leu-Gly-NH2): 36.4
CC(C)C[C@H](NC(=O)[C@@H]1CCCCN1)C(=O)NCC(N)=O (H-[Pip]-Leu-Gly-NH2): 58.7
CC(C)C[C@H](NC(=O)[C@@H]1CSCN1)C(=O)NCC(N)=O (H-[Thz]-Leu-Gly-NH2): 9.5
CC(C)C[C@H](NC(=O)[C@H]1C=CCN1)C(=O)NCC(N)=O: 14.4
CC(C)C[C@H](NC(=O)[C@@H]1CCN1)C(=O)NCC(N)=O (H-[Aze]-Leu-Gly-NH2): 42

--- query ---
stdin: State the recorded Enhancement for this entry: CC(C)C[C@H](NC(=O)[C@@H]1CCCN1)C(=O)NCC(N)=O (stereo in doubt; 1)
stdout: 46.2
